The measurements presented in this section are drawn from the supplement of paper PMC4862054.

System: HDQ-P1
method-summary: normalised response (% of control), CellTiter-Glo; higher = more viable cells (100 = DMSO, 0 = benzethonium chloride kill control)
protocol-conditions: incubation time: 72 h
measure-name: normalised response (%)
# value in %; strip the unit string

# count of solved cases: 6
CC(=O)O[C@H]1C(=O)[C@@]2(C)[C@H]([C@H](OC(=O)c3ccccc3)[C@]3(O)C[C@H](OC(=O)[C@H](O)[C@@H](NC(=O)c4ccccc4)c4ccccc4)C(C)=C1C3(C)C)[C@]1(OC(C)=O)CO[C@@H]1C[C@@H]2O [Paclitaxel] (1 nM)
89.8
COc1ncc(-c2ccc3nccc(-c4ccnnc4)c3c2)cc1NS(=O)(=O)c1ccc(F)cc1F (1 nM)
81.3
C[C@@H]1C=C2C(=O)O[C@@H]3CC[C@H](C1)[C@]23O [Galiellalactone] (50 nM)
104
CCS(=O)(=O)c1cccc(-c2cc(C(=O)NC3CCN(C)CC3)c(C)c3[nH]c4ncc(C)cc4c23)c1 [TAK-901] (0.1 nM)
98.9
C#Cc1cccc(Nc2ncnc3cc(OC)c(OCCCCCCC(=O)NO)cc23)c1 [CUDC-101] (10 nM)
95.8
Cn1c(=O)c(F)c(Nc2ccc(I)cc2F)c2c(=O)n(C[C@@H](O)CO)cnc21 [TAK-733] (1 nM)
83.7

query: Under HDQ-P1: report normalised response of C[C@@]1(C(=O)Nc2ccc(F)nc2)CCCN1c1nc(Nc2cc(C3CC3)n[nH]2)c2cccn2n1 (1000 nM) .
result: 46.7

query: Retrieve normalised response on HDQ-P1; query CC(=O)O[C@H]1C(=O)[C@@]2(C)[C@H]([C@H](OC(=O)c3ccccc3)[C@]3(O)C[C@H](OC(=O)[C@H](O)[C@@H](NC(=O)c4ccccc4)c4ccccc4)C(C)=C1C3(C)C)[C@]1(OC(C)=O)CO[C@@H]1C[C@@H]2O [Paclitaxel] (0.1 nM)
result: 96.4

query: State normalised response on HDQ-P1. Entry: C[C@@H]1CCN(C(=O)CC#N)C[C@@H]1N(C)c1ncnc2[nH]ccc12 [Tofacitinib] (5 nM)
result: 103

query: Return reported normalised response for target or system HDQ-P1, item C#Cc1cccc(Nc2ncnc3cc(OC)c(OCCCCCCC(=O)NO)cc23)c1 [CUDC-101] (1000 nM) .
result: 70

query: Report normalised response on HDQ-P1 for this entry: CC(C)(C)c1cc(NC(=O)Nc2ccc(-c3cn4c(n3)sc3cc(OCCN5CCOCC5)ccc34)cc2)no1 [Quizartinib] (100 nM)
result: 100

query: Please look at COC(=O)C[C@](O)(CCCC(C)(C)O)C(=O)O[C@@H]1C(OC)=C[C@]23CCCN2CCc2cc4c(cc2[C@H]13)OCO4 [Omacetaxine] (1000 nM) and tell me its recorded normalised response on HDQ-P1.
result: 23.1

query: GET normalised response where system = HDQ-P1 and item = CCCC(CCC)C(=O)O [Valproic acid] (1000 nM)
result: 103
